target-system: Tyramine receptor (TyrR) (Drosophila melanogaster, UniProt P22270)
Construct: expressed in transfected cells; host or cells: model cells in culture
Sequence (P22270 27-601): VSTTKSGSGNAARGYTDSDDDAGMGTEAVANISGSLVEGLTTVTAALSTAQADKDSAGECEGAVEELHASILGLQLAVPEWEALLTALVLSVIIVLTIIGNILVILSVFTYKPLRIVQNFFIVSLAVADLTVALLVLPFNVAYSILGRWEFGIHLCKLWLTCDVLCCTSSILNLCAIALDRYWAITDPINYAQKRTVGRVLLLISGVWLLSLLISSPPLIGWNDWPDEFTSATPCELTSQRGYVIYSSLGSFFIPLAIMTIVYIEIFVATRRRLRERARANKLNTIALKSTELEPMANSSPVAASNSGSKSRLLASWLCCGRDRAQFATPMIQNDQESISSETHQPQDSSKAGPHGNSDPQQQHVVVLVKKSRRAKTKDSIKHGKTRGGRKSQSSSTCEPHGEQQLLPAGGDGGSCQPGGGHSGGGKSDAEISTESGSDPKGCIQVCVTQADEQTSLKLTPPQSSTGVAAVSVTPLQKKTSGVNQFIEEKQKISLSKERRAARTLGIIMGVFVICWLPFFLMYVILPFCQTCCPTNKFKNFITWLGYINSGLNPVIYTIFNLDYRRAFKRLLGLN
assay-remarks: Intracellular Ca2+ level in cells expressing TyrR
Assay type: cell-based

>  <compound>
OCC=Cc1ccccc1

>  <Affects Intracellular Ca^2+ (Yes or No)>
Yes

$$$$
>  <compound>
CC12CCC(CC1)C(C)(C)O2

>  <Affects Intracellular Ca^2+ (Yes or No)>
Yes

$$$$
>  <compound>
C/C=C/c1ccc(OC)cc1

>  <Affects Intracellular Ca^2+ (Yes or No)>
Yes

$$$$
>  <compound>
CCC(C)(O)CCCC(C)C (centres unmarked) [tetrahydrolinalool]

>  <Affects Intracellular Ca^2+ (Yes or No)>
Yes

$$$$
>  <compound>
C=CC(C)(O)CCC=C(C)C (centres unmarked)

>  <Affects Intracellular Ca^2+ (Yes or No)>
Yes

$$$$
>  <compound>
OCc1ccccc1

>  <Affects Intracellular Ca^2+ (Yes or No)>
No

$$$$
>  <compound>
CC(C)=CCC/C(C)=C/CO

>  <Affects Intracellular Ca^2+ (Yes or No)>
Yes

$$$$
>  <compound>
Cc1ccc(C(C)C)cc1

>  <Affects Intracellular Ca^2+ (Yes or No)>
Yes

$$$$
>  <compound>
CC1=CCC2CC1C2(C)C (centres unmarked)

>  <Affects Intracellular Ca^2+ (Yes or No)>
No

$$$$
>  <compound>
CCCCCCCCCCCCOS(=O)(=O)[O-].[Na+] [sodium lauryl sulfate]

>  <Affects Intracellular Ca^2+ (Yes or No)>
No

$$$$
>  <compound>
Cc1ccc(C(C)C)c(O)c1

>  <Affects Intracellular Ca^2+ (Yes or No)>
Yes

$$$$
>  <compound>
C=CCc1ccc(O)c(OC)c1

>  <Affects Intracellular Ca^2+ (Yes or No)>
Yes

$$$$
>  <compound>
CCC(=O)OCCc1ccccc1 [phenethyl proprionate]

>  <Affects Intracellular Ca^2+ (Yes or No)>
No

$$$$
>  <compound>
C=C(C)[C@H]1CC=C(C)CC1

>  <Affects Intracellular Ca^2+ (Yes or No)>
Yes

$$$$
